Molecular target: RORγ (Homo sapiens, UniProt P51449)
Sequence (P51449 whole entry, looked up, the tested form may be a part): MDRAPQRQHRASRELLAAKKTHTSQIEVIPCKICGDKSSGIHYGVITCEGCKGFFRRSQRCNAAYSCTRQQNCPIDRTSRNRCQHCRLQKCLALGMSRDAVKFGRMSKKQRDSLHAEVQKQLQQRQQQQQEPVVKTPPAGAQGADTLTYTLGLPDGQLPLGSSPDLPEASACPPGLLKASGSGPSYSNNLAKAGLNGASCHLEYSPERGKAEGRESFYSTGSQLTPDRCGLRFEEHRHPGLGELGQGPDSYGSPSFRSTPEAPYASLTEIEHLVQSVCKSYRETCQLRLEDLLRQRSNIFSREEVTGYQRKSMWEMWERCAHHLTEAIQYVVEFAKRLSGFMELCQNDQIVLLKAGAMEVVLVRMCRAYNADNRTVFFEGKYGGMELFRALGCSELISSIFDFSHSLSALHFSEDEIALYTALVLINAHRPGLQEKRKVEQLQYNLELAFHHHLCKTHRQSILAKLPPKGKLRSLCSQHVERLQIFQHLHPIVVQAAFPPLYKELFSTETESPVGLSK
Assay: RORγ Gal4 Reporter Gene Assay
Assay type: cell-based
Conditions: firefly (FF) luciferase, 293T cells; read-out: pIC50 (FF) (converted)
REPORTED ENDPOINT: IC50 (nM)
API: value field is a number in nM; no unit string.

# IC50 (compound: `CCCc1nc(C(=O)N[C@H]2C[C@H](C(=O)O)C2)sc1-c1ccc(S(=O)(=O)NC(C)(C)C)c2ccccc12` ) is 79.4

IC50 reported for this compound `CC(C)(C)NS(=O)(=O)c1ccc(-c2sc(C(=O)N[C@H]3C[C@H](C(=O)O)C3)nc2CC2CCCCC2)c(OC(F)(F)F)c1` : 10

compound `CC(C)(C)c1cc(-c2sc(C(=O)N[C@H]3C[C@H](C(=O)O)C3)nc2CC2CCCCC2)cc(C(C)(C)O)n1` , IC50 observed: 158

The recorded IC50 for entry `CC(C)(C)c1cc(-c2sc(C(=O)N[C@H]3C[C@H](C(=O)O)C3)nc2CC2CCCCC2)cc(C(C)(C)C)[n+]1[O-]` equals 126

----------
Target: RORγ ligand binding domain (LBD) (Homo sapiens (Human))
Experiment: TR-FRET Activity Assay (ligand sensing assay, LANCE)
Conditions: TR-FRET, interaction of RORγ-LBD with coactivator peptide
REPORTED ENDPOINT: pIC50 (FRET)

Illustrative cases are given below, each with its answer.
- CC(C)(C)NS(=O)(=O)c1ccc(-c2sc(C(=O)NC3COC3)nc2CC2CCCCC2)c(Cl)c1Cl [6/34]: 7.2/8.5/8.5
- CC(C)(C)NS(=O)(=O)c1ccc(-c2sc(C(=O)NC3CC3)nc2CC2CCCCC2)c(Cl)c1Cl [6/31]: 7.3/8.0/8.0
- CCNS(=O)(=O)c1ccc(-c2sc(C(=O)NCC(C)(C)O)nc2CC2CCCCC2)c(Cl)c1Cl [Example 18]: 6.9/8.1/8.0

Now for the molecule whose pIC50 (FRET) we want.
Memo: CC(C)(C)NS(=O)(=O)c1ccc(-c2oc(C(=O)NC34CCC(C(=O)O)(CC3)CC4)nc2CC2CCCCC2)c2ccccc12 [100/14] , reported pIC50 (FRET): 5.8/7.9/7.9

----------
Entries and their measured pIC50 (FRET) follow.
Biological target: RORγ ligand binding domain (LBD) (Homo sapiens (Human), UniProt P51449)
Assay: TR-FRET Activity Assay (ligand sensing assay, LANCE)
Details: TR-FRET, interaction of RORγ-LBD with coactivator peptide

• CC(C)(C)NS(=O)(=O)c1ccc(-c2sc(C(=O)N[C@H]3C[C@H](C(=O)O)C3)nc2CC2CCCCC2)cc1C(C)(C)C [7/2] = 6.2/7.5/7.6
• CC(C)(C)NS(=O)(=O)c1ccc(-c2sc(C(=O)NC3CCS(=O)(=O)CC3)nc2C2CCCCC2)c2ccccc12 [300/2] = 6.9/8.2/8.2
• CC(C)(O)CNC(=O)c1nc(CC2CCCCC2)c(-c2ccc(S(=O)(=O)NC3(C(N)=O)CC3)c3ccccc23)s1 [8/3] = 6.4/7.5/7.6
• CC(C)(C)NS(=O)(=O)c1ccc(-c2sc(C(=O)NCCC(C)(C)C(=O)O)nc2CC2CCCCC2)cc1C(F)(F)F [Example 9/1] = 6.5/7.4/7.4

In the following, a different compound is considered.
For CC(C)(O)CNC(=O)c1nc(CC2CCC2)c(-c2ccc(S(=O)(=O)NC(C)(C)C)c3ccccc23)s1 [21/2] on RORγ ligand binding domain (LBD) (Homo sapiens (Human), UniProt P51449), measured pIC50 (FRET) was 6.8/8.4/8.5

----------
Recorded pIC50 (FRET) by entry
Biological target: RORγ ligand binding domain (LBD) (Homo sapiens (Human))
Test: TR-FRET Activity Assay (ligand sensing assay, LANCE)
Conditions: TR-FRET, interaction of RORγ-LBD with coactivator peptide

Example results:
- CCS(=O)(=O)c1ccc(CC(=O)Nc2nc(CC3CCCCC3)c(-c3ccc(S(=O)(=O)NC(C)(C)C)c(C(F)(F)F)c3)s2)cc1 [Example 200/1]: 7.1/7.4/7.8
- CC(C)(C)NS(=O)(=O)c1ccc(-c2oc(C(=O)N3CC4(CCS(=O)(=O)CC4)C3)nc2CC2CCCCC2)c2ccccc12 [100/9]: 6.3/8.5/8.5
- CC(C)(C)c1cc(-c2nc(C(=O)NC3COC3)ncc2CC2CCCCC2)cc(C(C)(C)C)c1 [Example 207]: 5.4/6.4/6.5
- CC(C)(C)NS(=O)(=O)c1ccc(-c2oc(C(=O)NCC3(O)CCS(=O)(=O)CC3)nc2CC2CCCCC2)c2ccccc12 [100/8]: 6.5/8.0/8.2

Now for the compound whose pIC50 (FRET) we want.
Reported pIC50 (FRET) of O=C(NC1CCS(=O)(=O)CC1)c1nc(CC2CCCCC2)c(-c2ccc(N3CCOCC3)c3ccccc23)s1 [7/27] : 6.5
